- subjectOfTest: aggregated TTR (Homo sapiens)
- experimentalProtocol: Binding affinity for Compound 1 with aggregated TTR (fluorescence titration, one site specific binding)
- testParameters: 5 μM TTR, 4% DMSO/PBS pH 7.4; Compound 1 0 to 10 μM; RFI at λmax(em); FIG. 2
- Method: A solution of DMSO/PBS (6 μL DMSO in 144 μL PBS, pH 7.4) was prepared as a blank control. Further, a 250 μM solution of Compound 1 in DMSO was prepared. The following samples were then prepared in triplicate while keeping a constant 5 μM TTR concentration in 4% DMSO/PBS: Emission spectra were taken for each sample and adjusted against the blank over the range of 445-700 nm. RFI at λmax(em) was determined for each sample. […]
observedProperty: Kd (nM)
Please state the figure in nM; there is no need to write the unit.

molecule COCCOCCOCCOC(=O)/C(C#N)=C/c1ccc2cc(N3CCCCC3)ccc2c1 [Compound 1] , Kd observed: 300

Hello, the source for this data is patent US20240165274A1, in case you need it.
